Parameter: ELISA OD. Scope: all listed entries.
Biological target: T1, mutant feline IL-31 15H05 protein (Feline_IL31_15H05_mutant) (feline)
T1 sequence: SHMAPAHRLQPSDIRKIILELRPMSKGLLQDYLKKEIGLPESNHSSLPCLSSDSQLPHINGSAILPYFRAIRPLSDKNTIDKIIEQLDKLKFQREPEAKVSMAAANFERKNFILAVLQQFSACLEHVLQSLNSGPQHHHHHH
Assay: indirect ELISA, IL-31 protein coated

BINDER: ZIL1 (recombinant fully canine antibody) (antibody, V domains shown) VH: EVQLVESGGDLVKPGGSLRLSCVASGFTFSSYGMSWVRQAPGKGLQWVAHINSGGSSTYYADAVKGRFTISRDNAKNTLYLQMNSLRAEDTAVYYCVEVYTTLAAFWTDNFDYWGQGTLVTVSS VL: QSVLTQPTSVSGSLGQRVTISCSGSTNNIGILAATWYQQLPGKAPKVLVYSDGNRPSGVPDRFSGSKSGNSATLTITGLQAEDEADYYCQSFDTTLDAYVFGSGTQLTVLR
ELISA OD: 0.92 OD

BINDER: ZIL159 (recombinant fully canine antibody) (antibody, V domains shown, also called CAN-ZIL159) VH: EVQLVESGGDLVKPAGSLRLSCVASGFTFSSYVMTWVRQAPGKGLQWVAGINSEGSRTAYADAVKGRFTISRDNAKNTLYLQIDSLRAEDTAIYYCATGDIVATGTSYWGQGTLVTVSS VL: SNVLTQPPSVSVSLGQTATISCSGETLNRFYTQWFQQKAGQAPVLVIYKDTERPSGIPDRFSGSSSGNIHTLTISGARAEDEAAYYCKSAVSIDVGVFGGGTHLTVFR
ELISA OD: 1.31 OD

BINDER: ZIL11 (recombinant fully canine antibody) (antibody, V domains shown, also called CAN-ZIL11; copies: 2 + 2) VH: EVQLVESGGDLVKPAGSLRLSCVASGFTFRTYVMNWVRQAPGKGLQWVASINGGGSSPTYADAVRGRFTVSRDNAQNSLFLQMNSLRAEDTAVYFCVVSMVGPFDYWGQGTLVTVSS VL: SSVLTQPPSVSVSLGQTATISCSGESLSNYYAQWFQQKAGQAPVLVIYKDTERPSGIPDRFSGSSSGNTHTLTISGARAEDEADYYCESAVSSDTIVFGGGTHLTVL
ELISA OD: 0.33 OD

BINDER: ZIL9 (recombinant fully canine antibody) (antibody, V domains shown) VH: EVQLVESGGDLVKPPGSLRLSCVASGFTFSSYDMTWVRQAPGKGLQWVADVNSGGTGTAYAVAVKGRFTISRDNAKKTLYLQMNSLRAEDTAVYYCAKLGVRDGLSVWGQGTLVTVSS VL: SSVLTQPPSVSVSLGQTATISCSGESLNEYYTQWFQQKAGQAPVLVIYRDTERPSGIPDRFSGSSSGNTHTLTISGARAEDEADYYCESAVDTGTLVFGGGTHLAVLR
ELISA OD: 0.73 OD

BINDER: ZIL69 (recombinant fully canine antibody) (antibody, V domains shown, also called CAN-ZIL69) VH: EVQLVESGGDLVKPAGSLRLSCVASGFTFSSYAMKWVRQAPGKGLQWVATINNDGTRTGYADAVRGRFTISKDNAKNTLYLQMDSLRADDTAVYYCTKGNAESGCTGDHCPPYWGQGTLVTVSS VL: SSVLTQPPSVSVSLGQTATISCSGESLNKYYAQWFQQKAGQAPVLVIYKDTERPSGIPDRFSGSSAGNTHTLTISGARAEDEADYYCESAVSSETNVFGSGTQLTVLR
ELISA OD: 0.92 OD
